Tested on: 496974-208-R-J2-PDC complex spheroids, growth % test/control;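 note: spheroids exposed to the drugs for 7 days before readout; 100% = DMSO vehicle control wells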
ASSAY_SUMMARY: Anticancer human tumor 496974-208-R-J2-PDC patient-derived pancreatic carcinoma cell line growth inhibition [CLK]
CONDITION: second compound 0.316 µM; first compound 1 µM; active compounds read low
MEASURED_QUANTITY: viability, T/C (%)
Provide only the numeric value, understood in %.

Here is how some molecules turned out for viability, T/C.
>>> assay_value("COC1C=CCC(C)C(C)S(=O)(=O)NC(=O)c2ccc3c(c2)N(CC2CCC21)CC1(CCCc2cc(Cl)ccc21)CO3 (stereo not given) + CNC(=O)c1ccc(Nc2nc(OC3CCCC3)c3c(-c4ccc5nc(C)oc5c4)c[nH]c3n2)c(OC)c1")
41.3
>>> assay_value("CCc1c2c(nc3ccc(O)cc13)-c1cc3c(c(=O)n1C2)COC(=O)[C@]3(O)CC + CN1CCN(c2cc(C(=O)Nc3cc4cc(-c5cnn(C)c5)ccc4cn3)ccn2)CC1")
1.92
>>> assay_value("COc1ccc([C@@H](O)c2cc(-c3ncnc4cc(N5CCOCC5)ccc34)c(F)cc2Cl)nn1 + CNC(=O)c1ccc(Nc2nc(OC3CCCC3)c3c(-c4ccc5nc(C)oc5c4)c[nH]c3n2)c(OC)c1")
67.1
>>> assay_value("COc1cccc2c1C(=O)c1c(O)c3c(c(O)c1C2=O)CC(O)(C(=O)CO)CC3OC1CC(N)C(O)C(C)O1 (stereo not given) + CNC(=O)c1ccc(Nc2nc(OC3CCCC3)c3c(-c4ccc5nc(C)oc5c4)c[nH]c3n2)c(OC)c1")
3.12

Now look at this entry.
Query: Entry CCN1CCN(Cc2ccc(Nc3ncc(F)c(-c4cc(F)c5nc(C)n(C(C)C)c5c4)n3)nc2)CC1 + CNC(=O)c1ccc(Nc2nc(OC3CCCC3)c3c(-c4ccc5nc(C)oc5c4)c[nH]c3n2)c(OC)c1 : reported viability, T/C = ?
Result: 94.8
